Let's look at some molecules and their measured Ki.
Target: MMP-2 (Homo sapiens, UniProt P08253)
Construct: made in house; host or cells: MMP-2-transfected p2AHT2 cells
Sequence (P08253 110-660): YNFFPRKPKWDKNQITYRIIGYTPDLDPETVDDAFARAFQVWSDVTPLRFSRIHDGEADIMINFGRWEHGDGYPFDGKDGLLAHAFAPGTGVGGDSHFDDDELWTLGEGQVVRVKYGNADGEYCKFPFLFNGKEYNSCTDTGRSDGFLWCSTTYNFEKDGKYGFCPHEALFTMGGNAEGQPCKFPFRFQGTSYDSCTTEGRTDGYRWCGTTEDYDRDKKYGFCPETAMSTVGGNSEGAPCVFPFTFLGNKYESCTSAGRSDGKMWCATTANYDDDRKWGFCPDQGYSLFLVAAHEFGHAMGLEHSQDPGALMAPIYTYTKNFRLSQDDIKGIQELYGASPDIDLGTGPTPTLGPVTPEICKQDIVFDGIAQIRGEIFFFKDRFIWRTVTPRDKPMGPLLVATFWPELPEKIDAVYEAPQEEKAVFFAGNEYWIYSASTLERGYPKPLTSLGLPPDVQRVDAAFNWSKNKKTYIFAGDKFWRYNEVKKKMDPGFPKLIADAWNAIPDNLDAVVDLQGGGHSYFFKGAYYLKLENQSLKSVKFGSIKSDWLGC
Test: In vitro MMP inhibition, Ki determination (fluorogenic substrate II)
Type: biochemical
Details: human recombinant enzyme; 4 μM substrate II; room temperature, 1 hr; read-out: MMP-2 Ki
Where a name gives a salt, the structure may show the parent alone.
READOUT: Ki

[[record]]
molecule = "CCCCCc1ccc(N2CCN(S(=O)(=O)C3(C(=O)NO)CCN(CCOC)CC3)CC2)cc1 [Example 6, Dihydrochloride]"
readout = "Ki"
readout_value = "501 pM"

[[record]]
molecule = "O=C(NO)C1(S(=O)(=O)N2CCC(c3ccc(CCC(F)(F)C(F)(F)F)cc3)CC2)CCOCC1"
readout = "Ki"
readout_value = "565 pM"

[[record]]
molecule = "O=C(NO)C1(S(=O)(=O)N2CCC(c3ccc(OCC(F)(F)F)cc3)CC2)CCN(C2CC2)CC1 [Example 25, Hydrochloride]"
readout = "Ki"
readout_value = "1180 pM"

[[record]]
molecule = "CCCCCCCCC1CCN(S(=O)(=O)C2(C(=O)NO)CCOCC2)CC1"
readout = "Ki"
readout_value = "780 pM"

[[record]]
molecule = "CCCCc1ccc(C2CCN(S(=O)(=O)C3(C(=O)NO)CCN(C4CC4)CC3)CC2)nc1 [Example 24, Hydrochloride]"
readout = "Ki"
readout_value = "910 pM"

[[record]]
molecule = "CCOc1ccc(N2CCN(S(=O)(=O)C3(C(=O)NO)CCOCC3)CC2)cc1"
readout = "Ki"
readout_value = "590 pM"

[[record]]
molecule = "CCCCCc1ccc(N2CCN(S(=O)(=O)C3(C(=O)NO)CCN(C(=O)C(F)(F)F)CC3)CC2)cc1 [Example 21, Hydrochloride]"
readout = "Ki"
readout_value = "3820 pM"

